All figures here come from patent US11498928B2.

assaySummary: Pharmacokinetic studies in mice (IV and PO)
Type: in vivo
studyConditions: PO 10 mg/kg vs IV 2 mg/kg
property: F (%)

molecule	unit	number
CO[C@H]1C2=CC(C2)[C@H](C)[C@@H](C)S(=O)(=O)NC(=O)c2ccc3c(c2)N(C[C@@H]2CC[C@H]21)C[C@@]1(CCCc2cc(Cl)c(F)cc21)CO3 (single isomer, unassigned) [Cpd. No. 21 (isomer 1)]	%	94.1
COCCO[C@H]1C2=CC(C2)[C@H](C)[C@@H](C)S(=O)(=O)NC(=O)c2ccc3c(c2)N(C[C@@H]2CC[C@H]21)C[C@@]1(CCCc2cc(Cl)ccc21)CO3 (mixture of isomers) [16 (mixture)]	%	70.5

A. CO[C@H]1C2=CC(C2)[C@H](C)[C@@H](C)S(=O)(=O)NC(=O)c2ccc3c(c2)N(C[C@@H]2CC[C@H]21)C[C@@]1(CCCc2cc(Cl)cc(F)c21)CO3 (single isomer, unassigned) [20 (isomer 1)]
B. CO[C@H]1/C=C/C[C@H](C)[C@@H](C)S(=O)(=O)NC(=O)c2ccc3c(c2)N(C[C@@H]2CC[C@H]21)C[C@@]1(CCCc2cc(Cl)ccc21)CO3 [AMG-176, reference compound]
Smaller F value, A vs B ? Answer format: the label of the selected item.
A
(A: 60.2%, B: 97.9%)

1. CO[C@H]1C2=C[C@@H](C2)[C@H](C)[C@@H](C)S(=O)(=O)NC(=O)c2ccc3c(c2)N(C[C@@H]2CC[C@H]21)C[C@@]1(CCCc2cc(Cl)ccc21)CO3 (single isomer, unassigned) [Cpd. No. 15 (isomer 1)]
2. CO[C@H]1C2=CC(C)(C2)[C@H](C)CS(=O)(=O)NC(=O)c2ccc3c(c2)N(C[C@@H]2CC[C@H]21)C[C@@]1(CCCc2cc(Cl)ccc21)CO3 (mixture of isomers) [13 (mixture)]
Recorded F values differ for 1 and 2 ; which one is higher? Respond using the label that marks the chosen record.
1

---

assaySummary: Pharmacokinetic studies in mice (IV and PO)
Format: in vivo
studyConditions: mouse, plasma, IV 2 mg/kg, read-out: MRT0-last
property: MRT last (h)

molecule	MRT last (h)
CO[C@H]1C2=C[C@@H](C2)[C@H](C)[C@@H](C)S(=O)(=O)NC(=O)c2ccc3c(c2)N(C[C@@H]2CC[C@H]21)C[C@@]1(CCCc2cc(Cl)ccc21)CO3 (single isomer, unassigned) [Cpd. No. 15 (isomer 1)]	4.8

A. CO[C@H]1C2=CC(C2)[C@H](C)CS(=O)(=O)NC(=O)c2ccc3c(c2)N(C[C@@H]2CC[C@H]21)C[C@@]1(CCCc2cc(Cl)ccc21)CO3 (single isomer, unassigned) [Cpd. No. 14 (Isomer 1)]
B. CO[C@H]1C2=CC(C)(C2)[C@H](C)CS(=O)(=O)NC(=O)c2ccc3c(c2)N(C[C@@H]2CC[C@H]21)C[C@@]1(CCCc2cc(Cl)ccc21)CO3 (mixture of isomers) [13 (mixture)]
C. COCCO[C@H]1C2=CC(C2)[C@H](C)[C@@H](C)S(=O)(=O)NC(=O)c2ccc3c(c2)N(C[C@@H]2CC[C@H]21)C[C@@]1(CCCc2cc(Cl)ccc21)CO3 (mixture of isomers) [16 (mixture)]
Order the records, beginning with the lowest MRT last and ending with the highest. Write the labels in rank order as requested.
C, A, B
(C: 1.9 h, A: 3.9 h, B: 6.2 h)

---

assaySummary: Pharmacokinetic studies in mice (IV and PO)
Type: in vivo
studyConditions: mouse, plasma, PO 10 mg/kg, read-out: C0/Cmax (Cmax)
property: Cmax (ng/mL)

compound	number
CO[C@H]1C2=CC(C2)[C@H](C)[C@@H](C)S(=O)(=O)NC(=O)c2ccc3c(c2)N(C[C@@H]2CC[C@H]21)C[C@@]1(CCCc2cc(Cl)cc(F)c21)CO3 (single isomer, unassigned) [20 (isomer 1)]	4860

a. CO[C@H]1/C=C/C[C@H](C)[C@@H](C)S(=O)(=O)NC(=O)c2ccc3c(c2)N(C[C@@H]2CC[C@H]21)C[C@@]1(CCCc2cc(Cl)ccc21)CO3 [AMG-176, reference compound]
b. CO[C@H]1C2=CC(C2)[C@H](C)[C@@H](C)S(=O)(=O)NC(=O)c2ccc3c(c2)N(C[C@@H]2CC[C@H]21)C[C@@]1(CCCc2cc(Cl)c(F)cc21)CO3 (single isomer, unassigned) [Cpd. No. 21 (isomer 1)]
Please indicate which item has the smaller measured Cmax: a versus b Identify your selection by its label.
a
(a: 2500 ng/mL, b: 5260 ng/mL)

---

assaySummary: Pharmacokinetic studies in mice (IV and PO)
Type: in vivo
studyConditions: mouse, plasma, PO 10 mg/kg
property: Tmax (h)

compound	Tmax (h)
CO[C@H]1C2=CC(C2)[C@H](C)[C@@H](C)S(=O)(=O)NC(=O)c2ccc3c(c2)N(C[C@@H]2CC[C@H]21)C[C@@]1(CCCc2cc(Cl)cc(F)c21)CO3 (single isomer, unassigned) [20 (isomer 1)]	1

1. CO[C@H]1/C=C/C[C@H](C)[C@@H](C)S(=O)(=O)NC(=O)c2ccc3c(c2)N(C[C@@H]2CC[C@H]21)C[C@@]1(CCCc2cc(Cl)ccc21)CO3 [AMG-176, reference compound]
2. CO[C@H]1C2=CC(C)(C2)[C@H](C)CS(=O)(=O)NC(=O)c2ccc3c(c2)N(C[C@@H]2CC[C@H]21)C[C@@]1(CCCc2cc(Cl)ccc21)CO3 (mixture of isomers) [13 (mixture)]
3. CO[C@H]1C2=C[C@@H](C2)[C@H](C)[C@@H](C)S(=O)(=O)NC(=O)c2ccc3c(c2)N(C[C@@H]2CC[C@H]21)C[C@@]1(CCCc2cc(Cl)ccc21)CO3 (single isomer, unassigned) [Cpd. No. 15 (isomer 1)]
Number of compounds to sort: 3. Sort criterion: Tmax, ascending. Record the ranking as a list of labels in the requested order.
1, 3, 2
(1: 1 h, 3: 2 h, 2: 4 h)

---

assaySummary: Pharmacokinetic studies in mice (IV and PO)
Assay type: in vivo
studyConditions: mouse, plasma, PO 10 mg/kg
property: AUC(0-t) (ng·h/mL)

Known results for compounds:
compound	AUC(0-t) (ng·h/mL)
CO[C@H]1C2=C[C@@H](C2)[C@H](C)[C@@H](C)S(=O)(=O)NC(=O)c2ccc3c(c2)N(C[C@@H]2CC[C@H]21)C[C@@]1(CCCc2c1ccc(Cl)c2F)CO3 (single isomer, unassigned) [Cpd. No. 17 (isomer 1)]	56000
CO[C@H]1/C=C/C[C@H](C)[C@@H](C)S(=O)(=O)NC(=O)c2ccc3c(c2)N(C[C@@H]2CC[C@H]21)C[C@@]1(CCCc2cc(Cl)ccc21)CO3 [AMG-176, reference compound]	32700

1. CO[C@H]1C2=CC(C2)[C@H](C)[C@@H](C)S(=O)(=O)NC(=O)c2ccc3c(c2)N(C[C@@H]2CC[C@H]21)C[C@@]1(CCCc2cc(Cl)c(F)cc21)CO3 (single isomer, unassigned) [Cpd. No. 21 (isomer 1)]
2. COCCO[C@H]1C2=CC(C2)[C@H](C)[C@@H](C)S(=O)(=O)NC(=O)c2ccc3c(c2)N(C[C@@H]2CC[C@H]21)C[C@@]1(CCCc2cc(Cl)ccc21)CO3 (mixture of isomers) [16 (mixture)]
Input pair: 1 , 2 . Output: entry with lower AUC(0-t). Record your answer as the label of the chosen record.
2
(2: 8360 ng·h/mL, 1: 41200 ng·h/mL)

---

Tested on: NCI-H929 cells
assaySummary: Cell viability assay (NCI-H929 cells), CCK-8
Format: cell-based
studyConditions: Homo sapiens, NCI-H929, 24 h, 5% FBS
pIC50: −log10 of the molar value.
property: pIC50

Field: example entries. Status: answers known.
compound	pIC50
CO[C@H]1C2=C[C@H](C2)[C@H](C)N(C[C@H]2CCCO2)S(=O)(=O)NC(=O)c2ccc3c(c2)N(C[C@@H]2CC[C@H]21)C[C@@]1(CCCc2cc(Cl)ccc21)CO3 (single isomer, unassigned) [30 (isomer 2)]	5.33
CO[C@H]1C2CC(C2)[C@H](C)CS(=O)(=O)NC(=O)c2ccc3c(c2)N(C[C@@H]2CC[C@H]21)C[C@@]1(CCCc2cc(Cl)ccc21)CO3 [compound 3]	5.52
CO[C@@]1(CN2CCN3CCCC[C@H]3C2)C2=C[C@@H](C2)[C@H](C)[C@@H](C)S(=O)(=O)NC(=O)c2ccc3c(c2)N(C[C@@H]2CC[C@H]21)C[C@@]1(CCCc2c1ccc(Cl)c2F)CO3 [compound 32]	8.00
CCOC(=O)CO[C@H]1C2=C[C@@H](C2)[C@H](C)[C@@H](C)S(=O)(=O)NC(=O)c2ccc3c(c2)N(C[C@@H]2CC[C@H]21)C[C@@]1(CCCc2c1ccc(Cl)c2F)CO3 [compound 72]	7.15
CO[C@H]1C2=CC(C2)CC(C)S(=O)(=O)NC(=O)c2ccc3c(c2)N(C[C@@H]2CC[C@H]21)C[C@@]1(CCCc2cc(Cl)ccc21)CO3 (mixture of isomers) [11 (mixture)]	6.57

a. C[C@@H]1[C@@H](C)S(=O)(=O)NC(=O)c2ccc3c(c2)N(C[C@@H]2CC[C@H]2[C@@H](N(C)C)C2=C[C@H]1C2)C[C@@]1(CCCc2c1ccc(Cl)c2F)CO3 [compound 57]
b. CO[C@@]1(CN2CCN(C)C(=O)C2)C2=C[C@@H](C2)[C@H](C)[C@@H](C)S(=O)(=O)NC(=O)c2ccc3c(c2)N(C[C@@H]2CC[C@H]21)C[C@@]1(CCCc2c1ccc(Cl)c2F)CO3 [compound 39]
c. C[C@@H]1[C@@H](C)S(=O)(=O)NC(=O)c2ccc3c(c2)N(C[C@@H]2CC[C@H]2[C@@H](OCc2ccccn2)C2=C[C@H]1C2)C[C@@]1(CCCc2c1ccc(Cl)c2F)CO3 [compound 94]
d. C[C@@H]1[C@@H](C)S(=O)(=O)NC(=O)c2ccc3c(c2)N(C[C@@H]2CC[C@H]2[C@@H](OCCN2CCN(C)CC2=O)C2=C[C@H]1C2)C[C@@]1(CCCc2c1ccc(Cl)c2F)CO3 [compound 91]
Order the records by pIC50, with each subsequent value no larger than the one before. The reply should contain the labels ordered as requested.
b, d, a, c

P. C[C@@H]1[C@@H](C)S(=O)(=O)NC(=O)c2ccc3c(c2)N(C[C@@H]2CC[C@H]2[C@@H](OCCN2C[C@@H](C)O[C@@H](C)C2)C2=C[C@H]1C2)C[C@@]1(CCCc2c1ccc(Cl)c2F)CO3 [compound 82]
Q. C[C@@H]1[C@@H](C)S(=O)(=O)NC(=O)c2ccc3c(c2)N(C[C@@H]2CC[C@H]2[C@](O)(CN2CCN4CCOC[C@H]4C2)C2=C[C@H]1C2)C[C@@]1(CCCc2c1ccc(Cl)c2F)CO3 [compound 48]
Which is greater in pIC50, the first item P or the second item Q ? Indicate your choice by writing its label.
Q
(Q: 7.55, P: 7.25)
